The values you see were collected from the supplement of paper PMC10307832.

Test system: NCI-H2009
Protocol: relative viability (nuclei count vs DMSO), 5 days (fraction); higher = more cells survive
Assay Setup: first compound 2.53 µM
Known relative viability of a selection of compounds

Compound: O=c1cc(-c2cccc3c2Sc2ccccc2S3)oc(N2CCOCC2)c1 + COc1cccc2cc(-c3nc([C@H]4CC[C@H](C(=O)O)CC4)n4ncnc(N)c34)[nH]c12 [OSI-027] (partner 0.5 µM)
relative viability: 0.575
//
Compound: COc1nc(C)cnc1NS(=O)(=O)c1cccnc1-c1ccc(-c2nnco2)cc1 [Zibotentan] + Nc1ncn([C@H]2C[C@H](O)[C@@H](CO)O2)c(=O)n1 [Decitabine] (partner 2 µM)
relative viability: 0.377
//
Compound: COc1nc(C)cnc1NS(=O)(=O)c1cccnc1-c1ccc(-c2nnco2)cc1 [Zibotentan] + O=C(CCCCCCC(=O)Nc1ccccc1)NO [Vorinostat] (partner 1 µM)
relative viability: 0.893
